test system: UACC-257; assay: NCI tumour cell line growth inhibition, 48 h
Calls of active or inactive are those of the source. Rule as the data show it: active = GI50 up to about 1.1 µM and inactive = higher. Where a SMILES comes first, the peptide text is derived from it. [ ]: non-standard residue; d: D form. The star is where a group is joined. Chg = N[CH](C(=O)O)C1CCCCC1; Cbz = O=C(OCc1ccccc1)*; OBn = c1ccc(CO*)cc1
Endpoint Name: GI50

Input: # return recorded GI50 for input CN(C)CCCN1c2ccccc2CCc2cc([N+](=O)[O-])ccc21
Output: 15 µM (inactive)

Input: Read off the recorded GI50 for CCOC(=O)C1C(=O)CC(O)(c2ccccc2)C(C(=O)OCC)C1c1ccc(N(C)C)cc1 (centres undefined)
Output: 63.8 µM (inactive)

Input: Please list GI50 recorded for the molecule O=c1[nH]nc(Cc2ccccc2)n1O
Output: > 100 µM (inactive)

Input: Look up and report measured GI50 for this entry: CN(C)c1ccc(/C=C(/NC(=O)c2ccccc2)c2nc3cc(Cl)ccc3[nH]2)cc1
Output: 20.3 µM (inactive)

Input: State its GI50: CC(=O)O[C@H]1[C@@H](OC2CCCC2(c2ccccc2)c2ccccc2)O[N+]([O-])=C[C@@H]1c1ccccc1 (some centres undefined)
Output: 9.25 µM (inactive)

Input: Quickly give me recorded GI50 for COC(=O)C(NC(=O)C(CC(=O)OCc1ccccc1)NC(=O)OCc1ccccc1)C1CCCCC1 (centres undefined) (Cbz-Asp(OBn)-[Chg]-OMe; configuration not given here)
Output: > 100 µM (inactive)

Input: Identify measured GI50 corresponding to NC(CCCCCP(=O)(O)O)C(=O)O (centres undefined)
Output: > 100 µM (inactive)

Input: Consider the molecule COc1cc(/C=C(\C#N)c2nc3ccccc3o2)ccc1O and give its recorded GI50.
Output: 23.5 µM (inactive)

Input: # return recorded GI50 for entry CC(C)N(C(=O)C12C3C4C1C1C2C3C41C(=O)N(C(C)C)C(C)C)C(C)C (centres undefined)
Output: > 50 µM (inactive)

Input: For the molecule CSC1=Nc2ccccc2-c2nc3ccccc3cc2C1 , report GI50.
Output: > 100 µM (inactive)

Input: Entry CC(C)CC(C(N)=O)C(=O)NC(Cc1ccccc1)NC(=O)CNC(=O)C(C)NC(=O)C(N)Cc1ccc(O)cc1 (centres undefined) needs its GI50 filled in; supply it.
Output: > 100 µM (inactive)

Input: Indicate the recorded GI50 value for this molecule: N#CC1=C(N)N2C(=O)/C(=C/c3ccccc3O)N=C2S1
Output: > 100 µM (inactive)

Input: Report GI50 for O=C(O)COc1ccc(C(=O)/C(SS/C(C(=O)c2ccc(OCC(=O)O)c(Cl)c2Cl)=C2\C=C(c3ccccc3Cl)SS2)=C2/C=C(c3ccccc3Cl)SS2)c(Cl)c1Cl
Output: 48.8 µM (inactive)

Input: Query GI50 for CCOC(=O)c1cnc(-n2[nH]c3c(c2=O)CCCC3)[nH]c1=O
Output: 32.4 µM (inactive)

Input: For the molecule O=C1OC[C@@H]2Cc3c([nH]c4ccccc34)[C@@H](c3cc(O)c(O)c(O)c3)N12 , report GI50.
Output: 2.99 µM (inactive)

Input: Kindly indicate its recorded GI50. Item: O=C(NCCCCCCCCNC(=O)c1cccc2ccccc12)c1cccc2ccccc12
Output: > 93.1 µM (inactive)

Input: Please indicate GI50 recorded for O=C(Cc1ccccc1)NS(=O)(=O)c1ccccc1
Output: > 100 µM (inactive)

Input: Tell me GI50 reported for O=C(OCc1ccccc1)c1ccccc1-c1c2ccc(=O)cc-2oc2cc(OCc3ccccc3)ccc12
Output: 8.95 µM (inactive)

Input: State its GI50: COc1cc2c(c(OC)c1)[C@H](C)N(Cc1ccccc1)C(C)C2 (some centres undefined)
Output: 67.8 µM (inactive)
